- MEASUREMENT NOTES: NCI Yeast Anticancer Drug Screen. Data for the sgs1 strain (AID 173);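 also: 0% = growth of vehicle-only control cultures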
- TEST PARAMETERS: S. cerevisiae sgs1 mutant, at 1.2 µM, active compounds read high
About 79,000 compounds went through this panel and 15% of them were active in at least one assay; those are over-represented in the sample as a whole. Starred links: 1 amine or outer side, 2 acyl side, 3 side chain; linkers in the order of their positions; H or OH if unused. Positions of bridges follow the written chain, without caps; N, C: chain ends. Non-standard residues stand in square brackets, D forms with d. Residues, ends and D or L forms follow the SMILES beside them. Chains are numbered I, II in the order given. Actinocin(9to1) = Cc1c2oc3c(C)ccc(C(=O)[*:1])c3nc-2c(C(=O)[*:2])c(N)c1=O; aThr = C[C@H](O)[C@H](N)C(=O)O; NMeV = CN[C@H](C(=O)O)C(C)C; Sar = CNCC(=O)O
VALUE KIND: growth inhibition (%)
Your answer is read as %, so omit the unit and give the number.

## Input Entry under review: Cc1c2oc3c(C)ccc(C(=O)N[C@@H]4C(=O)N[C@H](C(C)C)C(=O)N5CCC[C@H]5C(=O)N(C)CC(=O)N(C)[C@@H](C(C)C)C(=O)O[C@H]4C)c3nc-2c(C(=O)N[C@@H]2C(=O)N[C@H](C(C)C)C(=O)N3CCC[C@H]3C(=O)N(C)CC(=O)N(C)[C@@H](C(C)C)C(=O)O[C@H]2C)c(N)c1=O (I: [aThr][dV]P[Sar][NMeV] / II: [aThr][dV]P[Sar][NMeV]; ester I:1-I:C, II:1-II:C; linker I:N-II:N via Actinocin(9to1)) . Reported growth inhibition?
## Output 3

====

- MEASUREMENT NOTES: NCI Yeast Anticancer Drug Screen. Data for the wt2 strain (AID 169);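 also: 0% = growth of vehicle-treated yeast cultures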
- TEST PARAMETERS: S. cerevisiae wt2 strain growth inhibition; at 100.0 µM; active compounds read high
About 79,000 compounds went through this panel and 15% of them were active in at least one assay; those are over-represented in the sample as a whole.
Where growth inhibition equals or exceeds 90%, the correct label is rule met; where it does not, the label is rule not met.

## Input Confirm if growth inhibition reported for the compound [N-]=[N+]=NC1CC(n2ccc(=O)[nH]c2=O)OC1COC(c1ccccc1)(c1ccccc1)c1ccccc1 (stereo unspecified) is 90% or above.
## Output rule not met

## Input Confirm if growth inhibition reported for the compound CCOc1nc(OCC)nc(-c2cccn2-c2ccccc2)n1 is 90% or above.
## Output rule met

## Input Confirm if growth inhibition reported for the compound COC1=C(N=[N+]=[N-])C(=O)c2ncccc2C1=O is 90% or above.
## Output rule met

## Input Confirm if growth inhibition reported for the compound COc1cc(NCCCCCNC(C)C)c2ncccc2c1Cl is 90% or above.
## Output rule not met

## Input Confirm if growth inhibition reported for the compound CN(C)c1ccc(/C=C/c2ccnc3ccc4ccccc4c23)cc1 is 90% or above.
## Output rule not met

## Input Confirm if growth inhibition reported for the compound CCOC(=O)/C(O)=C(/C=N/C(=S)Nc1c(CC)cccc1CC)C(=O)OCC is 90% or above.
## Output rule not met

## Input Confirm if growth inhibition reported for the compound CCCCCCCCCCCCCCCCCN is 90% or above.
## Output rule met

## Input Confirm if growth inhibition reported for the compound O=S(=O)(O)CC[S][Sn]([S]CCS(=O)(=O)O)([c]1ccccc1)[c]1ccccc1 is 90% or above.
## Output rule met

## Input Confirm if growth inhibition reported for the compound CCOC(=O)c1[nH]c2cccc3c2c1CC(Br)C3=O (stereo unspecified) is 90% or above.
## Output rule met

====

For each of the molecules below, state its growth inhibition.
- MEASUREMENT NOTES: NCI Yeast Anticancer Drug Screen. Data for the sgs1 strain (AID 173);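 also: 0% = growth of vehicle-only control cultures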
- TEST PARAMETERS: S. cerevisiae sgs1 mutant, at 11.0 µM, active compounds read high
The panel holds about 79,000 compounds, 15% with a hit somewhere; the sample as a whole holds those more often.
Your answer is read as %, so omit the unit and give the number.

## Input Entry under review: O=C1OC(/C=C/c2ccccc2)Sc2ccccc21 (configuration not stated) . Reported growth inhibition?
## Output 6

## Input Entry under review: CN(C)c1ccc(C(c2ccc(Cl)cc2)c2ccc(N(C)C)cc2)cc1 . Reported growth inhibition?
## Output 83

## Input Entry under review: COc1ccc2nc3cccc([N+](=O)[O-])c3c(NCCCO)c2c1 . Reported growth inhibition?
## Output 97

## Input Entry under review: CCOC(=O)/C(O)=C(/C=N/C(=S)Nc1c(CC)cccc1CC)C(=O)OCC . Reported growth inhibition?
## Output 17

## Input Entry under review: C=Cc1c(C)c(O)cc2c1-c1ccc(O)c(C)c1CC2 . Reported growth inhibition?
## Output 36

## Input Entry under review: CCCCCCCCCCCCCCCCOCC(Cl)COP(=O)(O)OP(=O)(O)OCC1OC(n2cnc3c(N)ncnc32)C(O)C1O (configuration not stated) . Reported growth inhibition?
## Output 93

## Input Entry under review: Cc1cnccc1N=Nc1ccc(N(C)C)cc1 . Reported growth inhibition?
## Output 32

## Input Entry under review: O=S(=O)(CCC[C@H]1[C@@H](CCOCc2ccccc2)C2CCCN1O2)c1ccccc1 (some centres not stated) . Reported growth inhibition?
## Output 2

## Input Entry under review: C[Si](C)(C)Cc1ccccc1C(=O)O . Reported growth inhibition?
## Output 5

## Input Entry under review: BrC/C=C/C[P+](c1ccccc1)(c1ccccc1)c1ccccc1 . Reported growth inhibition?
## Output 95

## Input Entry under review: O=C(CCCN1CCC2(CC1)OC(=O)N(c1ccccc1)C2=O)c1ccccc1 . Reported growth inhibition?
## Output 71

## Input Entry under review: Cc1ccc2oc(-c3cccc(N)c3)nc2c1 . Reported growth inhibition?
## Output 2

## Input Entry under review: CCOC(=O)c1sc2[n+](c1C)C(=O)/C(=C/c1cc(OC)c(OC)c(OC)c1)S2 . Reported growth inhibition?
## Output 48

## Input Entry under review: COC(=O)C1(N2CCOCC2)CCC([C@@H](c2ccccc2)C(C)[N+](=O)[O-])C1 (some centres not stated) . Reported growth inhibition?
## Output 1

## Input Entry under review: COc1ccc(CCN2C(=O)C=CC2=O)cc1OC . Reported growth inhibition?
## Output 38

## Input Entry under review: CC1(C)CC(=O)C(C(CC(c2ccccc2)c2cc3c(cc2O)OCO3)C2=C(O)CC(C)(C)CC2=O)=C(O)C1 (configuration not stated) . Reported growth inhibition?
## Output 62

## Input Entry under review: Nc1cccc2cc(Cl)cnc12 . Reported growth inhibition?
## Output -14

## Input Entry under review: O=C(CCC(=O)c1ccc(O)cc1)Oc1ccc(O)cc1 . Reported growth inhibition?
## Output 1

## Input Entry under review: [O-]c1c2cc(-[n+]3c(-c4ccccc4)cc(-c4ccccc4)cc3-c3ccccc3)cc1COCCOCCOCCOCCOC2 . Reported growth inhibition?
## Output -1

## Input Entry under review: CCOC(=O)C1=C(C)NC(C)=C(C(=O)OCC)C1c1ccc(Cl)cc1 . Reported growth inhibition?
## Output 73

## Input Entry under review: C#CC1=CC(=O)C(OC)=CC1=O . Reported growth inhibition?
## Output 98

## Input Entry under review: c1ccc(N/N=C2\CC(c3ccccc3)Oc3ccccc32)cc1 (configuration not stated) . Reported growth inhibition?
## Output 5

====

For each of the compounds below, state its growth inhibition.
- MEASUREMENT NOTES: NCI Yeast Anticancer Drug Screen. Data for the mgt1 strain (AID 153)
- TEST PARAMETERS: S. cerevisiae mgt1 mutant growth inhibition; at 1.2 µM; active compounds read high
The panel holds about 79,000 compounds, 15% with a hit somewhere; the sample as a whole holds those more often.
Your answer is read as %, so omit the unit and give the number.

## Input Entry under review: c1cncc(C(Nc2cccc3cccnc23)Nc2cccc3cccnc23)c1 . Reported growth inhibition?
## Output 4

## Input Entry under review: CN(C)CCNC(=O)c1cccc2nc3c(ccc4ccccc43)nc12 . Reported growth inhibition?
## Output -1

## Input Entry under review: [Cl][Pt+2][Cl].[NH-]CC1(C[NH-])CCCCC1 . Reported growth inhibition?
## Output -44

## Input Entry under review: [N-]=[N+]=NC1CC(n2ccc(=O)[nH]c2=O)OC1COC(c1ccccc1)(c1ccccc1)c1ccccc1 (centres undefined) . Reported growth inhibition?
## Output 0

## Input Entry under review: COc1ccc2c(Cc3c4ccccc4cc4ccccc34)cncc2c1O . Reported growth inhibition?
## Output 3

## Input Entry under review: O=Cc1ccccc1B(O)O . Reported growth inhibition?
## Output 0

## Input Entry under review: N=c1oc2ccccc2cc1-c1nc2ccccc2[nH]1 . Reported growth inhibition?
## Output 13

## Input Entry under review: CN(C)N=Nc1ccc(NC=O)cc1 . Reported growth inhibition?
## Output 20

## Input Entry under review: O=C(c1c(F)c(F)c(F)c(F)c1F)c1c(F)c(F)c(F)c(F)c1F . Reported growth inhibition?
## Output 24

## Input Entry under review: Nc1c([N+](=O)[O-])cc2c3c(cccc13)CC2 . Reported growth inhibition?
## Output 5

## Input Entry under review: CCCCCCCCCCCCCCCCCN . Reported growth inhibition?
## Output -29

## Input Entry under review: NCC(O)CSCc1ccc(Cl)cc1 (centres undefined) . Reported growth inhibition?
## Output -4

## Input Entry under review: Nc1ccc2ncc(Nc3ccc(Cl)c(Cl)c3)nc2c1 . Reported growth inhibition?
## Output -32

## Input Entry under review: O=C1c2ccccc2C2CCC1c1ccccc12 (centres undefined) . Reported growth inhibition?
## Output -12

## Input Entry under review: Cc1ccc(N(C=O)c2c([N+](=O)[O-])cc([N+](=O)[O-])c3c2=[N+]([O-])CN=3)cc1 . Reported growth inhibition?
## Output 10

## Input Entry under review: S=c1[nH]nc(Cc2ccccc2)c(=S)[nH]1 . Reported growth inhibition?
## Output 23

## Input Entry under review: O=C(CCCN1CCC2(CC1)OC(=O)N(c1ccccc1)C2=O)c1ccccc1 . Reported growth inhibition?
## Output 29

## Input Entry under review: O=C1c2ccccc2C(=O)C1C(c1ccc(F)cc1)C1C(=O)c2ccccc2C1=O . Reported growth inhibition?
## Output 0

## Input Entry under review: CCCCCC/C(C)=N/Nc1ccc([N+](=O)[O-])cc1[N+](=O)[O-] . Reported growth inhibition?
## Output -3

## Input Entry under review: O=C(Cc1ccccc1F)NC1=C(Cl)C(=O)c2ccccc2C1=O . Reported growth inhibition?
## Output -2

## Input Entry under review: Cc1c2ccncc2c(C)c2c1oc1ccccc12 . Reported growth inhibition?
## Output -1

## Input Entry under review: COc1ccc2cc(CN3CCC(C4CCN(Cc5ccc6cc(OC)ccc6c5)CC4)CC3)ccc2c1 . Reported growth inhibition?
## Output -9

## Input Entry under review: Cc1ccnc(NS(=O)(=O)c2ccc(Nc3c4ccccc4nc4ccccc34)cc2)n1 . Reported growth inhibition?
## Output 37

## Input Entry under review: Cc1cnc(/C=N\NC(N)=S)c2cccc(N)c12 . Reported growth inhibition?
## Output -78
